Everything with boiling point lower than 200 °C is class 0; everything else, including exactly 200 °C, is class 1.

>  <compound>
Cl[SiH2]c1ccccc1

>  <class>
class 0

$$$$
>  <compound>
CCC=CCC

>  <class>
class 0

$$$$
>  <compound>
CCCCCCOCCCCCC

>  <class>
class 1

$$$$
>  <compound>
COCC(O)COC

>  <class>
class 0

$$$$
>  <compound>
CC(C)CCOCc1ccccc1

>  <class>
class 1

$$$$

[Q] # check: boiling point of CCCCNCC is greater than or equal to 200 °C
[A] class 0

[Q] # check: boiling point of O=C(O)CBr is greater than or equal to 200 °C
[A] class 1

[Q] # check: boiling point of COC(=O)c1ccc(OC)cc1 is greater than or equal to 200 °C
[A] class 1
